Test system: HEK-293 primary human embryonic kidney cell line
PROTOCOL: Sulforhodamine B assay, control cell line HEK-293
Assay type: cell-based
PARTICULARS: HEK293, read-out: IC50 HEK-293, mean ± SEM, normal control cells
The reader will find reported pIC50 values listed item by item below.
Answer as the number alone; pIC50 is minus log10 of concentration in mol/L.

Some entries whose results are on file:
| COMPOUND | pIC50 |
| --- | --- |
| C#CCCCC[C@H](C)C[C@@H](C)C(=O)O | 3.59 |
| CC(=O)[C@@H]1CCCN1C(=O)[C@@H]1CCCN1C(=O)OC(C)(C)C | 2.26 |
| C#CCCCC[C@H](C)C[C@@H](C)C(=O)N1C(=O)OC[C@H]1Cc1ccccc1 | 3.53 |
| CC(O)[C@@H]1CCCN1C(=O)[C@@H]1CCCN1C(=O)OC(C)(C)C (mixture of isomers) | 2.47 |

Attention now turns to another entry.
Query: Item COc1cccc2c1C(=O)c1c(O)c3c(c(O)c1C2=O)C[C@@](O)(C(=O)CO)C[C@@H]3O[C@H]1C[C@H](N)[C@H](O)[C@H](C)O1 [doxorubicin, reference compound] has what recorded pIC50?
Response: 4.41

====

Test system: DU-145 prostate cancer cell line
PROTOCOL: Sulforhodamine B antiproliferative assay, DU-145
Type: cell-based
PARTICULARS: Homo sapiens, DU-145, read-out: IC50 DU-145, mean ± SEM
pIC50: −log10 of the molar value.
Use YES when the recorded pIC50 is no lower than 6; use NO when it is lower.

| MOLECULE | GROUP |
| --- | --- |
| CC(O)[C@@H]1CCCN1C(=O)[C@@H]1CCCN1C(=O)OC(C)(C)C (mixture of isomers) | NO |
| COc1cccc2c1C(=O)c1c(O)c3c(c(O)c1C2=O)C[C@@](O)(C(=O)CO)C[C@@H]3O[C@H]1C[C@H](N)[C@H](O)[C@H](C)O1 [doxorubicin, reference compound] | YES |
| C#CCCCC[C@H](C)C[C@@H](C)C(=O)O | NO |

Next:
Query: Is it the case that C#CCCCC[C@H](C)C[C@@H](C)C(=O)N1C(=O)OC[C@H]1Cc1ccccc1 has pIC50 reaching or exceeding 6?
Response: NO
